tested on: human platelet-rich plasma; assay: Platelet aggregation assay, Aggregation-Human PRP/ADP; type: cell-based; conditions: inhibition of ADP-induced aggregation of human platelet-rich plasma
Counter-ions that a name gives are not always drawn.
metric-name: IC50 (µM)
Numbers only here, please. The scale is µM.

Solved entries:
1) N=C(N)c1ccc(C(=O)NC2CCC3(CC2)CN(CC(=O)O)C(=O)O3)cc1 (centres unmarked) :: 0.51
2) N=C(N)c1ccc(COC2CCC3(CC2)CN(CC(=O)O)C(=O)O3)cc1 (centres unmarked) :: 1.29
3) N=C(N)NCCCCC(=O)N1CCC2(CC1)CN(CC(=O)O)C(=O)O2 :: 7
4) N=C(N)c1ccc(C(=O)N2CCC3(CCC(CC(=O)O)CC3)CC2)cc1 [Example 2, Hydrochloride] :: 0.41
5) CCOC(=O)CCN1CCC2(CC1)CC(c1ccc(C(=N)N)cc1)=NO2 [Example 14, Hydrochloride] :: 0.64
6) CCOC(=O)CCCN1CCC2(CC1)CC(c1ccc(C(=N)N)cc1)=NO2 [Example 7, Hydrochloride] :: 2.8
7) N=C(N)c1ccc(C(=O)N2CCC3(CCN(C(=O)CCC(=O)O)CC3)CC2)cc1 :: 14
8) N=C(N)c1ccc(C2=NOC3(CCN(CCC(=O)O)CC3)C2)cc1 :: 0.11
9) CCOC(=O)CC1CCC2(CC1)CCN(C(=O)c1ccc(C(=N)N)cc1)CC2 [Example 1, Hydrochloride] :: 100
10) O=C(O)CN1CCC2(CCN(CCC3CCNCC3)CC2)CC1 [Example 27, Tristrifluoroacetate] :: 100

In plain terms, N=C(N)NCCCCCC(=O)N1CCC2(CC1)CN(CC(=O)O)C(=O)O2 has a documented IC50 of 12

Sample N=C(N)c1ccc(C2=NOC3(CCN(CC(=O)O)CC3)C2)cc1 ; IC50 observed: 4

----------
molecular target: GPIIb-IIIa (Homo sapiens, UniProt P05106+P08514); construct: Purified platelet GPIIb-IIIa receptor was prepared as described by Fitzgerald; experiment: ELISA IIb-IIIa assay (fibrinogen binding to immobilized GPIIb-IIIa); conditions: inhibition of biotinylated fibrinogen binding to plate-coated purified platelet GPIIb-IIIa receptor
Sequence (P08514 32-887 limits assumed): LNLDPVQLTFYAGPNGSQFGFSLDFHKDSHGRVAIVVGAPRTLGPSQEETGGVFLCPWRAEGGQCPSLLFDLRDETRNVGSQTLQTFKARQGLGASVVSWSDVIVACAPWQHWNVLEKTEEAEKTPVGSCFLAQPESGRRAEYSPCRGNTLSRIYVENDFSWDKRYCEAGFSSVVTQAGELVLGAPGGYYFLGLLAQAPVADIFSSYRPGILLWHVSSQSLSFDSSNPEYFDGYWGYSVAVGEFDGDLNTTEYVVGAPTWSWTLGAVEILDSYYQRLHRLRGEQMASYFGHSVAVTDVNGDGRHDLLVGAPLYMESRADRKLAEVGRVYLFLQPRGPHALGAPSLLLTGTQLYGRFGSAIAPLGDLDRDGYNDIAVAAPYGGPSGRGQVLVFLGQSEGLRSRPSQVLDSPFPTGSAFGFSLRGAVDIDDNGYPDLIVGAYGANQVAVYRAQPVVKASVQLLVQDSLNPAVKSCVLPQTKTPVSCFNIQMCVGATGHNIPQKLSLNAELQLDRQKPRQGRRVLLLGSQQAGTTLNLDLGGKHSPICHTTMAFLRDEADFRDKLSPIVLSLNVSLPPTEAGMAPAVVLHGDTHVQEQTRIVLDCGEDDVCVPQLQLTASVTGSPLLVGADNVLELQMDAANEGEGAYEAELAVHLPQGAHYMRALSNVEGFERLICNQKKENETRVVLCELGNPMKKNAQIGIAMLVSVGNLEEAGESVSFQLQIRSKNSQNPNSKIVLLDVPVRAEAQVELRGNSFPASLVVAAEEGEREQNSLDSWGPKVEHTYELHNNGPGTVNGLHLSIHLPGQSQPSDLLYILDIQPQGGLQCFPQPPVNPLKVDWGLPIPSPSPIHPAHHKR
Sequence (P08514 891-1039 limits assumed): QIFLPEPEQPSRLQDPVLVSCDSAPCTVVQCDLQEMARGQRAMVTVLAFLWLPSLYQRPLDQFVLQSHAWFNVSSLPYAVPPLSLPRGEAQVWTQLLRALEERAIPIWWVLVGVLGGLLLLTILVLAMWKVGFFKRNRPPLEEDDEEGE
Sequence (P05106 27-788): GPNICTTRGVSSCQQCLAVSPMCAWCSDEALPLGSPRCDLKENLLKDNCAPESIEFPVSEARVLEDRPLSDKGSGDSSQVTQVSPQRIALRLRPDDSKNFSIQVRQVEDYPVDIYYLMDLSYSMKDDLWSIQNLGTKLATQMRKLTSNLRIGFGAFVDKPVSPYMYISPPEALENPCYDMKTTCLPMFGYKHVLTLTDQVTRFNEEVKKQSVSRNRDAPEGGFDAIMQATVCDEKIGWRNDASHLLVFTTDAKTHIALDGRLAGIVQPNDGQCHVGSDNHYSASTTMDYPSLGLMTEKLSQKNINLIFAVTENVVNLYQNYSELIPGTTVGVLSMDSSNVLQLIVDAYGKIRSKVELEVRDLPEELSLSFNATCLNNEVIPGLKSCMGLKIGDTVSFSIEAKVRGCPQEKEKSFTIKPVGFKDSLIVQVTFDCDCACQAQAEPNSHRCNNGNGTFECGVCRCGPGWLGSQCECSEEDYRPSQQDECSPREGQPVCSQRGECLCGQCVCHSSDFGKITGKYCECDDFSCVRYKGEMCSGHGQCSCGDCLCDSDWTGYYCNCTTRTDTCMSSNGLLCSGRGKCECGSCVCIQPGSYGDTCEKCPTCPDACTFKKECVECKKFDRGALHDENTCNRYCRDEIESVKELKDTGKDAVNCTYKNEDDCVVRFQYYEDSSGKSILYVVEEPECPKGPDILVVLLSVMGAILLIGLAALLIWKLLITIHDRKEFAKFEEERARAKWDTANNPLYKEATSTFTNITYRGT
metric-name: IC50
Answer with the number, then the unit.

1) N=C(N)NCCCCCC(=O)N1CCC2(CC1)CN(CC(=O)O)C(=O)O2 :: 2700 nM

Data point: N=C(N)c1ccc(C(=O)N2CCC3(CCN(C(=O)CCC(=O)O)CC3)CC2)cc1 ; IC50 = 15000 nM

The compound N=C(N)c1ccc(CC(=O)N2CCC3(CC2)CCN(CC(=O)O)C(=O)O3)cc1 showed IC50 equal to 200 nM

Value of IC50 reported for the compound N=C(N)c1ccc(C(=O)NC2CCC3(CC2)CN(CC(=O)O)C(=O)O3)cc1 (stereo not shown) is 170 nM

----------
target: GPIIb-IIIa (Homo sapiens, UniProt P05106+P08514); construct: Purified platelet GPIIb-IIIa receptor was prepared as described by Fitzgerald; test: ELISA IIb-IIIa assay (fibrinogen binding to immobilized GPIIb-IIIa); conditions: inhibition of biotinylated fibrinogen binding to plate-coated purified platelet GPIIb-IIIa receptor
Counter-ions that a name gives are not always drawn.
The threshold is 4000 nM. Values of IC50 beneath it are tagged class 1; values meeting or exceeding it are tagged class 0.

Worked examples, 3 molecules total:
1) N=C(N)c1ccc(CC(=O)N2CCC3(CC2)CN(CC(=O)O)C(=O)O3)cc1 :: class 1
2) N=C(N)c1ccc(C(=O)N2CCC3(CCC(CC(=O)O)CC3)CC2)cc1 [Example 2, Hydrochloride] :: class 1
3) N=C(N)NCCCC(=O)N1CCC2(CC1)CN(CC(=O)O)C(=O)O2 :: class 0

We now examine a further molecule.
Is it true that IC50 reported for N=C(N)c1ccc(C(=O)N2CCC3(CCN(CC(=O)O)C(=O)O3)CC2)cc1 is less than 4000 nM? class 0

----------
tested on: human platelet-rich plasma; test: Platelet aggregation assay, Aggregation-Human PRP/ADP; type: cell-based; settings: inhibition of ADP-induced aggregation of human platelet-rich plasma
Structures can show the parent of a compound that is named as a salt.
metric-name: IC50 (nM)
Give just the number in nM; leave the unit off.

1. N=C(N)c1ccc(C2=NOC3(CCN(C(=O)CCC(=O)O)CC3)C2)cc1 :: 1000
2. N=C(N)c1ccc(C2=NOC3(CCN(C(=O)CCCC(=O)O)CC3)C2)cc1 :: 84
3. CCOC(=O)CCCC(=O)N1CCC2(CC1)CC(c1ccc(C(=N)N)cc1)=NO2 [Example 16, Hydrochloride] :: 200
4. N=C(N)c1ccc(C2=NOC3(CCN(CCCC(=O)O)CC3)C2)cc1 :: 320
5. N=C(N)c1ccc(CC(=O)N2CCC3(CC2)CN(CC(=O)O)C(=O)O3)cc1 :: 1110
6. N=C(N)c1ccc(C(=O)N2CCC3(CC2)CN(CC(=O)O)C(=O)O3)cc1 :: 80000

Now turn to the next compound.
Notebook: N=C(N)c1ccc(C(=O)N2CCC3(CCN(C(=O)CCCC(=O)O)CC3)CC2)cc1 , IC50 read as 10000

----------
test system: human platelet-rich plasma; experiment: Platelet aggregation assay, Aggregation-Human PRP/ADP; format: cell-based; details: inhibition of ADP-induced aggregation of human platelet-rich plasma
log10 of IC50: recorded values
The common logarithm of IC50 in µM is what is listed.

# count of solved cases: 5
1) N=C(N)c1ccc(CC(=O)N2CCC3(CC2)CCN(CC(=O)O)C(=O)O3)cc1 :: 0.33
2) N=C(N)c1ccc(CC(=O)NC2CCC3(CC2)CN(CC(=O)O)C(=O)O3)cc1 (centres unmarked) :: -0.11
3) N=C(N)c1ccc(C(=O)N2CCC3(CCN(CC(=O)O)C(=O)O3)CC2)cc1 :: 1.82
4) N=C(N)c1ccc(N2CC3(CCN(CCCC(=O)O)CC3)OC2=O)cc1 :: 0.48
5) N=C(N)NCCCC(=O)N1CCC2(CC1)CN(CC(=O)O)C(=O)O2 :: 1.72

Turning to the following molecule.
The molecule identified as N=C(N)c1ccc(C2=NOC3(CCN(CCCCC(=O)O)CC3)C2)cc1 registered its log10 of IC50 at -0.35

----------
Measured log10 of IC50 of individual entries
molecular target: GPIIb-IIIa (Homo sapiens, UniProt P05106+P08514); construct: Purified platelet GPIIb-IIIa receptor was prepared as described by Fitzgerald; assay: ELISA IIb-IIIa assay (fibrinogen binding to immobilized GPIIb-IIIa); settings: inhibition of biotinylated fibrinogen binding to plate-coated purified platelet GPIIb-IIIa receptor
Please keep in mind that the values are log10 of IC50 expressed in nM.

Below: 4 compounds and their reported log10 of IC50.
1. N=C(N)c1ccc(COC2CCC3(CC2)CN(CC(=O)O)C(=O)O3)cc1 (stereo not drawn) [Example 34] :: 2.54
2. N=C(N)NCCCCC(=O)N1CCC2(CC1)CN(CC(=O)O)C(=O)O2 [Example 38] :: 3.27
3. N=C(N)c1ccc(C(=O)N2CCC3(CCN(C(=O)CCCC(=O)O)CC3)CC2)cc1 [Example 42] :: 3.54
4. N=C(N)c1ccc(C(=O)N2CCC3(CC2)CN(CC(=O)O)C(=O)O3)cc1 [Example 30] :: 4.46

Would you kindly look at the next entry?
Lab note: compound N=C(N)c1ccc(CC(=O)NC2CCC3(CC2)CN(CC(=O)O)C(=O)O3)cc1 (stereo not drawn) [Example 35] tested on GPIIb-IIIa (Homo sapiens, UniProt P05106+P08514); recorded log10 of IC50 was 2.28

----------
Readings of pIC50 for the listed compounds
Test system: human platelet-rich plasma
Test: Platelet aggregation assay, Aggregation-Human PRP/ADP
Type: cell-based
Conditions: inhibition of ADP-induced aggregation of human platelet-rich plasma
Experimental: No. 2—The Platelet Aggregation Assay In addition to the ELISA IIb-IIIa assay previously described the Aggregation-Human PRP/ADP Assay is useful for evaluating therapeutic compounds. Platelet-rich plasma was prepared from healthy human volunteers for use in determining inhibition of platelet aggregation by the compounds. Blood was collected via a 21-gauge butterfly cannula, using a two-syringe technique into 1/10 volume of 3.8% trisodium citrate. […]
pIC50: −log10 of the molar value.

Solved cases (3 shown):
1. O=C(O)CC1CCC2(CC1)CCN(CCC1CCNCC1)CC2 :: < 5.00
2. O=C(O)CN1CCC2(CCN(CCc3ccncc3)CC2)CC1 [Example 20, Bistrifluoroacetate] :: < 4.00
3. O=C(O)CC1CCC2(CC1)CCN(CCc1ccncc1)CC2 :: < 4.00

Lab note: CCOC(=O)CC1CCC2(CC1)CCN(CCc1ccncc1)CC2 gave pIC50 of < 4.00

----------
Listed next: entries and their corresponding pIC50.
Test system: human platelet-rich plasma
Test: Platelet aggregation assay, Aggregation-Human PRP/ADP
Type: cell-based
Conditions: inhibition of ADP-induced aggregation of human platelet-rich plasma
Method: No. 2—The Platelet Aggregation Assay In addition to the ELISA IIb-IIIa assay previously described the Aggregation-Human PRP/ADP Assay is useful for evaluating therapeutic compounds. Platelet-rich plasma was prepared from healthy human volunteers for use in determining inhibition of platelet aggregation by the compounds. Blood was collected via a 21-gauge butterfly cannula, using a two-syringe technique into 1/10 volume of 3.8% trisodium citrate. […]
pIC50: −log10 of the molar value. Where a name gives a salt, the structure may show the parent alone.

Some compounds with known pIC50 results, for comparison:
1. O=C(O)CN1C(=O)CC2(CCN(CCc3ccncc3)CC2)CC1=O [Example 26, Trifluoroacetate] :: < 4.00
2. N=C(N)c1ccc(C(=O)N2CCC3(CC2)CN(CCCC(=O)O)C(=O)CO3)cc1 [Example 12, Hydrochloride] :: < 5.00
3. N=C(N)c1ccc(C(=O)N2CCC3(CC2)NC(=O)N(CCCC(=O)O)C3=O)cc1 [Example 21, Trifluoroacetate] :: < 5.00

The reported value for N=C(N)c1ccc(C(=O)N2CCC3(CC2)C(=O)N(CC(=O)O)C(=O)N3Cc2ccccc2)cc1 [Example 13, Trifluoroacetate] in terms of pIC50 is < 4.00
